System: MvaT
Assay comment: PBM 8-mer E-score (mean of HK and ME arrays) (E-score (dimensionless, -0.5 to 0.5)); higher = stronger relative binding preference
Whole data set: some 33,000 sequences, median “E-score (dimensionless, -0.5 to 0.5)” near -0.058, cut for the highest 2% near 0.35. The sample as a whole holds a higher share of the highest values than the screen did.
PBM 8-mer E-score values for the sequences below.

>  <Sequence text>
AGGTGGGC

>  <PBM 8-mer E-score>
-0.177

$$$$
>  <Sequence text>
CAAATGTA

>  <PBM 8-mer E-score>
0.0762

$$$$
>  <Sequence text>
TCCTTCCA

>  <PBM 8-mer E-score>
-0.27

$$$$
>  <Sequence text>
AGCTGCAC

>  <PBM 8-mer E-score>
-0.122

$$$$
>  <Sequence text>
CACTTAGC

>  <PBM 8-mer E-score>
-0.0629

$$$$
>  <Sequence text>
GAAATGTA

>  <PBM 8-mer E-score>
0.259

$$$$
>  <Sequence text>
ATACATAA

>  <PBM 8-mer E-score>
0.336

$$$$
>  <Sequence text>
AAATCAGT

>  <PBM 8-mer E-score>
0.111

$$$$
>  <Sequence text>
AAGAGAAT

>  <PBM 8-mer E-score>
0.126

$$$$
>  <Sequence text>
TAAATGTA

>  <PBM 8-mer E-score>
0.359

$$$$
>  <Sequence text>
AAACATAA

>  <PBM 8-mer E-score>
0.371

$$$$
>  <Sequence text>
AGATAATG

>  <PBM 8-mer E-score>
0.295

$$$$
>  <Sequence text>
GCTATTTA

>  <PBM 8-mer E-score>
0.252

$$$$
>  <Sequence text>
AGTATTTG

>  <PBM 8-mer E-score>
0.308

$$$$
>  <Sequence text>
GGATAAGA

>  <PBM 8-mer E-score>
0.0379

$$$$
>  <Sequence text>
ATACAAAA

>  <PBM 8-mer E-score>
0.304

$$$$
>  <Sequence text>
AAATTCAA

>  <PBM 8-mer E-score>
0.226

$$$$
>  <Sequence text>
GGTATTTA

>  <PBM 8-mer E-score>
0.27

$$$$
>  <Sequence text>
ACTATTTG

>  <PBM 8-mer E-score>
0.258

$$$$
>  <Sequence text>
CGGTTATC

>  <PBM 8-mer E-score>
0.0552

$$$$
>  <Sequence text>
AGCGCGCG

>  <PBM 8-mer E-score>
-0.184

$$$$
>  <Sequence text>
ATGATATC

>  <PBM 8-mer E-score>
0.131

$$$$
>  <Sequence text>
CGATATAA

>  <PBM 8-mer E-score>
0.395

$$$$
>  <Sequence text>
GCCTGACA

>  <PBM 8-mer E-score>
-0.188

$$$$
>  <Sequence text>
TGATATAA

>  <PBM 8-mer E-score>
0.353

$$$$
>  <Sequence text>
CTTGGTTA

>  <PBM 8-mer E-score>
0.0108

$$$$
>  <Sequence text>
TGATAAAA

>  <PBM 8-mer E-score>
0.258

$$$$
>  <Sequence text>
CTCATTTA

>  <PBM 8-mer E-score>
0.172

$$$$
>  <Sequence text>
TATTAGGA

>  <PBM 8-mer E-score>
0.247

$$$$
>  <Sequence text>
AGTATTTC

>  <PBM 8-mer E-score>
0.207

$$$$
>  <Sequence text>
ACAGGTCG

>  <PBM 8-mer E-score>
-0.216

$$$$
>  <Sequence text>
CCAGATGG

>  <PBM 8-mer E-score>
-0.281

$$$$
>  <Sequence text>
ATACATAC

>  <PBM 8-mer E-score>
0.319

$$$$
>  <Sequence text>
CATCCTTA

>  <PBM 8-mer E-score>
0.0793

$$$$
>  <Sequence text>
ATTATTGC

>  <PBM 8-mer E-score>
0.292

$$$$
>  <Sequence text>
CGGGAAAG

>  <PBM 8-mer E-score>
-0.177

$$$$
>  <Sequence text>
ATACATAT

>  <PBM 8-mer E-score>
0.394

$$$$
>  <Sequence text>
CGCCTAAG

>  <PBM 8-mer E-score>
-0.113

$$$$
>  <Sequence text>
GAACATAA

>  <PBM 8-mer E-score>
0.256

$$$$
>  <Sequence text>
GTTGCATA

>  <PBM 8-mer E-score>
0.0505

$$$$
>  <Sequence text>
GATATTGA

>  <PBM 8-mer E-score>
0.228

$$$$
>  <Sequence text>
CCTGAATA

>  <PBM 8-mer E-score>
0.0626

$$$$
>  <Sequence text>
CCATAAGG

>  <PBM 8-mer E-score>
-0.19

$$$$
>  <Sequence text>
AGAAAGGG

>  <PBM 8-mer E-score>
-0.151

$$$$
>  <Sequence text>
CAAGCAGA

>  <PBM 8-mer E-score>
-0.0444

$$$$
>  <Sequence text>
GATATTCA

>  <PBM 8-mer E-score>
0.0985

$$$$
>  <Sequence text>
GAATTTAA

>  <PBM 8-mer E-score>
0.264

$$$$
>  <Sequence text>
TAATTTAA

>  <PBM 8-mer E-score>
0.457

$$$$
>  <Sequence text>
AATATTCA

>  <PBM 8-mer E-score>
0.312

$$$$
>  <Sequence text>
AGTATTTA

>  <PBM 8-mer E-score>
0.33

$$$$
>  <Sequence text>
ATTCTTGA

>  <PBM 8-mer E-score>
0.0466

$$$$
>  <Sequence text>
TAAACTAA

>  <PBM 8-mer E-score>
0.34

$$$$
>  <Sequence text>
AGGTATGA

>  <PBM 8-mer E-score>
0.12

$$$$
>  <Sequence text>
ACTACTTC

>  <PBM 8-mer E-score>
0.117

$$$$
>  <Sequence text>
GATTTGTA

>  <PBM 8-mer E-score>
0.205

$$$$
>  <Sequence text>
ATACAAAT

>  <PBM 8-mer E-score>
0.35

$$$$
>  <Sequence text>
CTTATTTC

>  <PBM 8-mer E-score>
0.291

$$$$
>  <Sequence text>
ACAGGAAC

>  <PBM 8-mer E-score>
-0.0162

$$$$
>  <Sequence text>
AAACATAT

>  <PBM 8-mer E-score>
0.361

$$$$
>  <Sequence text>
ATCGGTAA

>  <PBM 8-mer E-score>
-3.6e-06

$$$$
>  <Sequence text>
TATATTCA

>  <PBM 8-mer E-score>
0.373

$$$$
>  <Sequence text>
ACTATTTA

>  <PBM 8-mer E-score>
0.345

$$$$
>  <Sequence text>
GGGTGCGA

>  <PBM 8-mer E-score>
-0.091

$$$$
>  <Sequence text>
ATCTCGAA

>  <PBM 8-mer E-score>
-0.0688

$$$$
>  <Sequence text>
ATACCGAG

>  <PBM 8-mer E-score>
-1.06e-05

$$$$
>  <Sequence text>
AGACTTGG

>  <PBM 8-mer E-score>
-0.179

$$$$
>  <Sequence text>
CAAACTAC

>  <PBM 8-mer E-score>
0.248

$$$$
>  <Sequence text>
CCTACTTA

>  <PBM 8-mer E-score>
0.251

$$$$
>  <Sequence text>
CCAAATTA

>  <PBM 8-mer E-score>
0.228

$$$$
>  <Sequence text>
ATTATTTC

>  <PBM 8-mer E-score>
0.352

$$$$
>  <Sequence text>
ATAATCTG

>  <PBM 8-mer E-score>
0.196

$$$$
>  <Sequence text>
ATTATTTG

>  <PBM 8-mer E-score>
0.351

$$$$
>  <Sequence text>
GCTCTCGA

>  <PBM 8-mer E-score>
-0.0844

$$$$
>  <Sequence text>
AAGAGCTT

>  <PBM 8-mer E-score>
-0.115

$$$$
>  <Sequence text>
AAGCCGCT

>  <PBM 8-mer E-score>
-0.232

$$$$
>  <Sequence text>
ATAATATG

>  <PBM 8-mer E-score>
0.435

$$$$
>  <Sequence text>
ATTATTTA

>  <PBM 8-mer E-score>
0.44

$$$$
>  <Sequence text>
CATATTGA

>  <PBM 8-mer E-score>
0.264

$$$$
>  <Sequence text>
GGATATAA

>  <PBM 8-mer E-score>
0.307

$$$$
>  <Sequence text>
AAACATAG

>  <PBM 8-mer E-score>
0.216

$$$$
>  <Sequence text>
CTCCTAAA

>  <PBM 8-mer E-score>
-0.112

$$$$
>  <Sequence text>
ACTTATGG

>  <PBM 8-mer E-score>
0.206

$$$$
>  <Sequence text>
CAACCATA

>  <PBM 8-mer E-score>
0.0988

$$$$
>  <Sequence text>
CAATTTAA

>  <PBM 8-mer E-score>
0.366

$$$$
>  <Sequence text>
CGCGGTGA

>  <PBM 8-mer E-score>
-0.142

$$$$
>  <Sequence text>
GAGCCGAC

>  <PBM 8-mer E-score>
-0.262

$$$$
>  <Sequence text>
CGGTGGCA

>  <PBM 8-mer E-score>
-0.169

$$$$
>  <Sequence text>
TCATGACA

>  <PBM 8-mer E-score>
-0.0413

$$$$
>  <Sequence text>
TTGAGAAA

>  <PBM 8-mer E-score>
0.135

$$$$
>  <Sequence text>
GCAAAATA

>  <PBM 8-mer E-score>
0.198

$$$$
>  <Sequence text>
TATATTGA

>  <PBM 8-mer E-score>
0.387

$$$$
